- target_desc: T1, mPD-1-his (mouse, UniProt Q02242 25-167, limits assumed)
- T1 construct: domain: IgV domain
- T1 sequence: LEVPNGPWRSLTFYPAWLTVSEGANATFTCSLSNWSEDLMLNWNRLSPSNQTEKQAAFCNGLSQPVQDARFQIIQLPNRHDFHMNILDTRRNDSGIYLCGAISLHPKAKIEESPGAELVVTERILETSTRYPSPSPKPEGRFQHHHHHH
- protocol_text: SPR Biacore, mPD1-his
recorded_metric: Kd

// below: answered binders
m2C1 (antibody, V domains shown, R3A9 derivative; also called m3CM (apparent misprint)) VH: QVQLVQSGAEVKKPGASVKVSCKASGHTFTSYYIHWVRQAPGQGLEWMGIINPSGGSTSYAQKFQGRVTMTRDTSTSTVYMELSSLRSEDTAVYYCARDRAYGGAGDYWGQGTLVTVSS VL: DIQMTQSPSSLSASVGDRVTITCRASRSISSWLAWYQQKPGKAPKLLIYAASSLQSGVPSRFSGSGSGTDFTLTISSLQPEDFATYYCQQSYSIPATFGQGTKVEIK | 3.22 nM
m4D1 (antibody, V domains shown, R3A9 derivative) VH: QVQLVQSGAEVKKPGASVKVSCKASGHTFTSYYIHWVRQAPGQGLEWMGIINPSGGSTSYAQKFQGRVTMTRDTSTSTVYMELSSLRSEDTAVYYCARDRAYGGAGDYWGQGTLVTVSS VL: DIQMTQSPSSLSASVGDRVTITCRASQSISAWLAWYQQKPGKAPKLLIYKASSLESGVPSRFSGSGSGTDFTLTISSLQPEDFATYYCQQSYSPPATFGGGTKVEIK | 2.87 nM
m2A1 (antibody, V domains shown, R3A9 derivative; also called m2AM (apparent misprint)) VH: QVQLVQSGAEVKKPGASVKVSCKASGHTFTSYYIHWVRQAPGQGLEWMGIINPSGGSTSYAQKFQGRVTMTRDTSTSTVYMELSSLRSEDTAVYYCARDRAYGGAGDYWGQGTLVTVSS VL: DIQMTQSPSSLSASVGDRVTITCRASRGISSWLAWYQQKPGKAPKLLIYAASSLQSGVPSRFSGSGSGTDFTLTISSLQPEDFATYYCQQSYSPPWTFGQGTKVEIK | 2.83 nM

For the next question, use this binder.
I have this binder here, R3A9 (antibody, V domains shown, also called 7115A; mPD1 parental (R3A9)) VH: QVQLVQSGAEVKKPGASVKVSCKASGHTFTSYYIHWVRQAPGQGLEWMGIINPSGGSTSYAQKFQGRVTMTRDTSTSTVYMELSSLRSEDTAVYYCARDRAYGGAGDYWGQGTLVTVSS VL: DIQMTQSPSSLSASVGDRVTITCRASQSVGTWLAWYQQKPGKAPKLLIYSASTLQSGVPSRFSGSGSGTDFTLTISSLQPEDFATYYCQQSYSAPLTFGGGTKVEIK , and I need its recorded Kd.
15.7 nM
